Molecular target: beta-catenin/TCF4 engagement (Homo sapiens, UniProt P35222)
Construct: expressed in transfected cells; host or cells: HEK293
Sequence (P35222 whole entry): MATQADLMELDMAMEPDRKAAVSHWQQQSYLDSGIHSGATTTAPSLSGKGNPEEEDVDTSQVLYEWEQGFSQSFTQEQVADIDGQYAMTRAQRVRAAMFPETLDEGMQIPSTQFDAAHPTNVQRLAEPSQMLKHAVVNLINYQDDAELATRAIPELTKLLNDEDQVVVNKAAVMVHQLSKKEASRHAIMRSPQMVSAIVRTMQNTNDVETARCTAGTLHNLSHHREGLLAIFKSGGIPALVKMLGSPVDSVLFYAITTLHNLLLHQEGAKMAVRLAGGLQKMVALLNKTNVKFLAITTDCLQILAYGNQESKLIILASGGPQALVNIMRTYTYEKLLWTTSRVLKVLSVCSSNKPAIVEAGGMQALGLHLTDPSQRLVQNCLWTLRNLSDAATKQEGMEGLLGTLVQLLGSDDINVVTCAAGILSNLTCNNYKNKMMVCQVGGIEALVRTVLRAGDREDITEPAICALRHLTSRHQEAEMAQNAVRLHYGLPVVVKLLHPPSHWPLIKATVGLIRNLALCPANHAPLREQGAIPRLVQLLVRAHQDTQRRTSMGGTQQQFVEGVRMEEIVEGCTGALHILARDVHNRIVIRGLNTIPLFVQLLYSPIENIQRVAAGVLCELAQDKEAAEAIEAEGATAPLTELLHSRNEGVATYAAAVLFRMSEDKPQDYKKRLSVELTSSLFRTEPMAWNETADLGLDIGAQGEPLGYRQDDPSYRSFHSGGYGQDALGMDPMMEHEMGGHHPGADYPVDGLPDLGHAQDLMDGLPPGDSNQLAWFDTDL
Assay: Nano-BRET target engagement assay (B-cat-Halo & TCF4-Luc in HEK293 cells)
Assay type: cell-based
Conditions: absolute IC50; read-out: NanoBRET Abs IC50
Assignment: determine reported IC50 for the given compounds.
Numbers only, in µM.

[
  {
    "COMPOUND": "CC(=O)N1CCC[C@]12CC=CCCCC1(CCCC=CCCCOC(=O)N3CC[C@@](C(=O)N[C@@H](Cc4ccsc4)C(=O)N[C@@H](Cc4csc5ccccc45)C(=O)N[C@H](CO)[C@@H](C)O)(C3)NC(=O)[C@H](CC(C)C)NC(=O)[C@H](Cc3ccccc3)NC(=O)[C@H](C)NC(=O)[C@H](C)NC(=O)[C@H](Cc3ccccc3C(=O)O)NC(=O)[C@H](CC(=O)O)NC1=O)NC(=O)[C@H](CC(C)(C)C)NC(=O)[C@H](CC(=O)O)NC2=O (single isomer, unassigned) [I-1671]",
    "TESTED ON": "beta-catenin/TCF4 engagement (Homo sapiens, UniProt P35222)",
    "RECORDED VALUE": 8
  }
]

// query Returns the measured IC50 for the input compound. Input: CC(=O)N1CCC[C@]12CC=CCCCC1(CCCC=CCCCOC(=O)N3CC[C@@](C(=O)N[C@@H](Cc4ccccc4Cl)C(=O)N[C@@H](Cc4csc5ccccc45)C(=O)N[C@@H](CCC(N)=O)C(N)=O)(C3)NC(=O)[C@H]([C@@H](C)O)NC(=O)[C@H](Cc3ccccc3)NC(=O)[C@H](C)NC(=O)[C@H](C)NC(=O)[C@H](CN(CC(=O)O)CC(F)(F)F)NC(=O)[C@H](CC(=O)O)NC1=O)NC(=O)[C@H](CC(C)(C)C)NC(=O)[C@H](CC(=O)O)NC2=O (stereo partly drawn)
// result 2.7

---

Target: beta-catenin/TCF4 engagement (Homo sapiens)
Construct: expressed in transfected cells; host or cells: HEK293
Assay: Nano-BRET target engagement assay (B-cat-Halo & TCF4-Luc in HEK293 cells)
Type: cell-based
Details: absolute IC50; read-out: NanoBRET Abs IC50
EXPERIMENTAL READOUT: pIC50
Numbers only, as −log10 of the molar value.

// query Need pIC50, item CC(=O)N1CCC[C@]12CC=CCCCC1(CCCC=CCCCOC(=O)N3CC[C@@](C(=O)N[C@@H](Cc4ccsc4)C(=O)N[C@@H](Cc4csc5ccccc45)C(=O)N[C@@H](CCC(=O)N(C)C)C(=O)N[C@@H](C)C(N)=O)(C3)NC(=O)[C@H](CC(C)C)NC(=O)[C@H](Cc3ccccc3)NC(=O)[C@H](C)NC(=O)[C@H](C)NC(=O)[C@H](CN(CC(=O)O)CC(F)(F)F)NC(=O)[C@H](CC(=O)O)NC1=O)NC(=O)[C@H](CC(C)(C)C)NC(=O)[C@H](CC(=O)O)NC2=O (some centres unmarked)
// result 5.60

---

Biological target: full-length beta-Catenin (Uniprot ID P35222) (Homo sapiens, UniProt P35222)
Construct: 10 nM full-length beta-Catenin (Uniprot ID P35222)
Sequence (P35222 whole entry, one chain of several): as the sequence (P35222 whole entry) above
Assay: Fluorescence polarization IC50 (beta-catenin / 5FAM-TCF4 10-53 competition)
Assay type: binding
Conditions: fluorescence polarization, beta-catenin; read-out: FP EC50
Label yes when IC50 < 400 nM; otherwise no.

[
  {
    "COMPOUND": "CC(=O)N1CCC[C@]12CC=CCCCC1(CCCC=CCCCCOC(=O)N3CC[C@@](C(=O)N[C@@H](Cc4ccsc4)C(=O)N[C@@H](Cc4csc5ccccc45)C(=O)N[C@@H](CC(N)=O)C(=O)N[C@H](C)C(N)=O)(C3)NC(=O)[C@H](CC(N)=O)NC(=O)[C@H](Cc3ccccc3)NC(=O)[C@H](C)NC(=O)[C@H](C)NC(=O)[C@H](CC(=O)O)NC(=O)[C@H](CC(=O)O)NC1=O)NC(=O)[C@H](CC(C)(C)C)NC(=O)[C@H](CC(=O)O)NC2=O (some centres unmarked) [I-835]",
    "CLASS NAME": "yes"
  },
  {
    "COMPOUND": "CC(=O)N1CCC[C@]12CC=CCCCC1(CCCC=CCCCOC(=O)N3CC[C@@](C(=O)N[C@@H](Cc4ccsc4)C(=O)N[C@@H](Cc4csc5ccccc45)C(=O)N[C@@H](CO)C(N)=O)(C3)NC(=O)[C@H](CC(C)C)NC(=O)[C@H](Cc3ccccc3)NC(=O)[C@H](C)NC(=O)[C@H](C)NC(=O)[C@H](CN(CC(=O)O)CC(F)(F)F)NC(=O)[C@H](CC(=O)O)NC1=O)NC(=O)[C@H](CC(C)(C)C)NC(=O)[C@H](CC(=O)O)NC2=O (some centres unmarked) [I-961]",
    "CLASS NAME": "yes"
  },
  {
    "COMPOUND": "CC(=O)N1CCC[C@]12CC=CCCCC1(CCCC=CCCCCOC(=O)N3CC[C@@](C(=O)N[C@@H](Cc4ccsc4)C(=O)N[C@@H](Cc4csc5ccccc45)C(=O)N[C@@H](CCC(N)=O)C(=O)N[C@H](C)C(N)=O)(C3)NC(=O)[C@H](CC(N)=O)NC(=O)[C@H](Cc3ccccc3)NC(=O)[C@H](C)NC(=O)[C@H](C)NC(=O)[C@H](CC(=O)O)NC(=O)[C@H](CC(=O)O)NC1=O)NC(=O)[C@H](CC(C)(C)C)NC(=O)[C@H](CC(=O)O)NC2=O (some centres unmarked) [I-830]",
    "CLASS NAME": "yes"
  },
  {
    "COMPOUND": "CC[C@H](C)[C@@H]1NC(=O)[C@H](CC(=O)O)NC(=O)[C@]2(CC=CCCCC3(CCCC=CCOC(=O)N(C)CCC[C@@](C)(C(=O)N[C@@H](Cc4ccccc4)C(=O)N[C@@H](Cc4c[nH]c5ccccc45)C(=O)N[C@@H](Cc4c[nH]cn4)C(N)=O)NC(=O)[C@H](CCC(N)=O)NC(=O)[C@H](Cc4ccccc4)NC(=O)[C@H](C)NC(=O)[C@H](C)NC(=O)[C@H](CC(=O)O)NC(=O)[C@H](CC(=O)O)NC3=O)NC1=O)CCCN2C(C)=O (some centres unmarked) [I-189]",
    "CLASS NAME": "no"
  }
]

// query Quick check: does CC(=O)N1CCC[C@]12CC=CCCCC1(CCCC=CCCCCCC[C@@](C)(C(=O)N[C@@H](Cc3ccccc3)C(=O)N[C@@H](Cc3csc4ccccc34)C(=O)N[C@@H](CCC(N)=O)C(N)=O)NC(=O)[C@H](C(C)C)NC(=O)[C@H](Cc3cccc(F)c3F)NC(=O)[C@H](C)NC(=O)[C@H](C)NC(=O)[C@H](CCC(=O)O)NC(=O)[C@H](CC(=O)O)NC1=O)NC(=O)[C@H](C)NC(=O)[C@H](CC(=O)O)NC2=O (some centres unmarked) [I-390] have IC50 under 400 nM?
// result no
